- experiment summary: General antimicrobial activity assay (whole-cell, CLSI broth microdilution, MIC)
- Format: cell-based
- setup conditions: against a strain of at least one of the organisms listed; broth microdilution, 0.016 to 64 μg/mL
MIC values by entry
Write down the numeric answer in µg/mL and omit the unit.

A selection of reference data follows.
{"columns": ["compound smiles", "unit spec", "MIC"],
 "data": [
  ["O=c1ccc2ncccc2n1CCN1CCC(NCc2cccc(Cl)c2)CC1", "µg/mL", 4],
  ["Cc1ncc(CN[C@H]2CCN(CCn3c(=O)ccc4ncc(F)cc43)C[C@H]2O)cc1F", "µg/mL", 32],
  ["O=c1ccc2ncc(F)cc2n1CCN1CCC(NCc2ccc(F)cc2)CC1", "µg/mL", 4]
]}

MIC measured on "O=c1ccc2ncc(F)cc2n1CCN1CCC(NCc2nc(Br)cs2)CC1" = 32
